Listing of entries alongside the reported cytotoxicity at 10 µM.
- Experiment notes: Toxicity liver stage against HepG2, at 10uM
- Format: cell-based
- Parameters: test concentration 10 uM, cell line HepG2-A16-CD81EGFP
- Cond: human, HepG2-A16-CD81EGFP cells; read-out: INHIBITION

[
  {
    "Molecule": "COc1c(C2CCCN2CC(=O)N(C)Cc2ccco2)c(C)nn1C (stereo not drawn)",
    "cytotoxicity at 10 µM / %": -3.13
  },
  {
    "Molecule": "CC(=O)N1CCC[C@H]1C(=O)NCCOc1cccc(Cl)c1",
    "cytotoxicity at 10 µM / %": -8.78
  },
  {
    "Molecule": "CNc1snc(C)c1C(=O)N1CCCC(n2ccnc2C)C1 (stereo not drawn)",
    "cytotoxicity at 10 µM / %": -14.1
  }
]

----------
- Experiment notes: Toxicity liver stage against HepG2, at 10uM
- Type: cell-based
- Parameters: test concentration 10 uM, cell line HepG2-A16-CD81EGFP
- Cond: human, HepG2-A16-CD81EGFP cells; read-out: INHIBITION
Listing of entries alongside the reported cytotoxicity at 10 µM.
Quantity name: cytotoxicity at 10 µM (%)

[
  {
    "Molecule": "N#Cc1cn(C2CC2)c(=O)n(CC(O)c2ccc(OC(F)F)cc2)c1=O (configuration not stated)",
    "Result number": -2.22
  },
  {
    "Molecule": "Cc1cccc(C(=O)N2CCCn3c(CN4CCCCC4)nnc3C2)c1",
    "Result number": -84
  },
  {
    "Molecule": "CS(=O)(=O)NC[C@H]1OC[C@H]2CN(Cc3ccsc3)CC[C@H]21",
    "Result number": 5.29
  },
  {
    "Molecule": "CCOc1ccc(NC(=O)c2ccc(C#N)cc2C)cc1CO",
    "Result number": -4.12
  },
  {
    "Molecule": "CNC(=O)CN1CC[C@H]2CN(C(=O)c3ccc(C)cc3)C[C@H]2C1",
    "Result number": -4.06
  },
  {
    "Molecule": "O=C(c1ccc(S(=O)(=O)NCC(F)F)cc1)N1C[C@H]2CNC[C@H]2C1",
    "Result number": -13
  },
  {
    "Molecule": "O=C1COC2(CCN(c3ncccn3)CC2)CN1",
    "Result number": 12.9
  }
]

----------
- Experiment notes: Toxicity liver stage against HepG2, at 10uM
- Assay type: cell-based
- Parameters: test concentration 10 uM, cell line HepG2-A16-CD81EGFP
- Cond: human, HepG2-A16-CD81EGFP cells; read-out: INHIBITION

[
  {
    "Compound": "COc1ccc(NC(=O)CCN2CC=C(c3cnn(C)c3)CC2)c(C)c1",
    "cytotoxicity at 10 µM": "-4.08%"
  },
  {
    "Compound": "CCN(CC)CCNc1c(-c2ccccc2)c(=O)c1=O",
    "cytotoxicity at 10 µM": "-0.686%"
  },
  {
    "Compound": "CC(C)(C)c1ncc(C(=O)NCCSc2ccccn2)c(O)n1",
    "cytotoxicity at 10 µM": "-0.494%"
  },
  {
    "Compound": "Cc1nccn1CC1CCCN(C(=O)c2cnn(C)c2)C1 (centres undefined)",
    "cytotoxicity at 10 µM": "-6.44%"
  }
]

----------
- Experiment notes: Toxicity liver stage against HepG2, at 10uM
- Type: cell-based
- Design: test concentration 10 uM, cell line HepG2-A16-CD81EGFP
- Cond: human, HepG2-A16-CD81EGFP cells; read-out: INHIBITION

[
  {
    "Molecule": "CCc1n[nH]c(C(=O)NCCn2ccnc2C)c1C",
    "cytotoxicity at 10 µM / %": -9.29
  },
  {
    "Molecule": "Cn1ccnc1CNC(=O)c1cncc(C2CCNCC2)n1",
    "cytotoxicity at 10 µM / %": 1.81
  },
  {
    "Molecule": "Cc1c(C2SCC(=O)Nc3c2c(O)nn3C(C)C)cnn1C (stereo unspecified)",
    "cytotoxicity at 10 µM / %": 2.39
  },
  {
    "Molecule": "CCN(CC)C(=O)CCNC(=O)Cc1nc(-c2ccco2)oc1C",
    "cytotoxicity at 10 µM / %": 26.8
  },
  {
    "Molecule": "Cc1ccc(-c2ccc(=O)n(CC(=O)Nc3nccs3)n2)cc1",
    "cytotoxicity at 10 µM / %": -10.2
  },
  {
    "Molecule": "CC(C)CCC(=O)Nc1ncn(CC(=O)N2CCCCCC2)n1",
    "cytotoxicity at 10 µM / %": 1.17
  },
  {
    "Molecule": "COc1ccc(F)cc1CN(CC(N)=O)C(C)C",
    "cytotoxicity at 10 µM / %": -1.68
  },
  {
    "Molecule": "CNS(=O)(=O)c1ccccc1N1CCN(C(=O)NC(C)C)CC1",
    "cytotoxicity at 10 µM / %": 9.44
  },
  {
    "Molecule": "COC(=O)[C@H]1CN(S(C)(=O)=O)CCN1S(C)(=O)=O",
    "cytotoxicity at 10 µM / %": -1.37
  },
  {
    "Molecule": "CCn1nccc1CNc1[nH]cnc2nncc1-2",
    "cytotoxicity at 10 µM / %": 3.15
  },
  {
    "Molecule": "Cc1nc(C2CCCN2CCCS(=O)(=O)c2ccccc2)no1 (stereo unspecified)",
    "cytotoxicity at 10 µM / %": -4.42
  },
  {
    "Molecule": "CCn1cc2c(n1)CN(Cc1ccc(F)cc1)CC2COCC1CC1 (stereo unspecified)",
    "cytotoxicity at 10 µM / %": -69
  },
  {
    "Molecule": "Cc1cc(-c2cnc(NC3CCCC3)nc2-c2ccoc2C)on1",
    "cytotoxicity at 10 µM / %": 45.7
  },
  {
    "Molecule": "CC(C)(C)NC(=O)C[C@@H]1CCNC[C@@H]1Cc1cc(C(C)(C)C)on1",
    "cytotoxicity at 10 µM / %": 4.37
  },
  {
    "Molecule": "Cc1nonc1CNC(=O)C(C)Oc1ccccc1F (stereo unspecified)",
    "cytotoxicity at 10 µM / %": 2.57
  },
  {
    "Molecule": "CCN(CC1CN(CCc2ccccn2)CCO1)c1cccnn1 (stereo unspecified)",
    "cytotoxicity at 10 µM / %": -6
  }
]

----------
Listing of entries alongside the reported cytotoxicity at 10 µM.
- Experiment notes: Toxicity liver stage against HepG2, at 10uM
- Assay type: cell-based
- Set-up: test concentration 10 uM, cell line HepG2-A16-CD81EGFP
- Cond: human, HepG2-A16-CD81EGFP cells; read-out: INHIBITION
Quantity name: cytotoxicity at 10 µM (%)

[
  {
    "Molecule": "CC1CCCN(c2ncc(-c3ccccc3F)c(-c3nccn3C)n2)C1 (stereo unspecified)",
    "Quantity name": "cytotoxicity at 10 µM",
    "Result number": 26.8
  },
  {
    "Molecule": "COCCOCC(=O)Nc1ccc(C)cc1Br",
    "Quantity name": "cytotoxicity at 10 µM",
    "Result number": -6.99
  },
  {
    "Molecule": "CS(=O)(=O)NC1CCc2c(ccc(=O)n2CC2CC2)C1 (stereo unspecified)",
    "Quantity name": "cytotoxicity at 10 µM",
    "Result number": 4.84
  },
  {
    "Molecule": "COc1cccc(-c2cnc3n2CCC32CCN(C(C)=O)CC2)c1",
    "Quantity name": "cytotoxicity at 10 µM",
    "Result number": -2.05
  },
  {
    "Molecule": "Cc1nn(C)c(C)c1C(=O)NC(C)CC(=O)c1cccs1 (stereo unspecified)",
    "Quantity name": "cytotoxicity at 10 µM",
    "Result number": -5.08
  },
  {
    "Molecule": "Cc1nc(CN2CCCn3cnc(COCC4CC4)c3C2)cs1",
    "Quantity name": "cytotoxicity at 10 µM",
    "Result number": 7.04
  },
  {
    "Molecule": "Cc1nc(Cc2ccccc2)nc2sc(C(=O)O)c(C)c12",
    "Quantity name": "cytotoxicity at 10 µM",
    "Result number": 0.986
  },
  {
    "Molecule": "CN(C)C(=O)C1(CCCc2ccncc2)CCCN1 (stereo unspecified)",
    "Quantity name": "cytotoxicity at 10 µM",
    "Result number": 0.59
  },
  {
    "Molecule": "Cc1c[nH]c(CN(C)C(=O)CCn2cnc3ccccc32)n1",
    "Quantity name": "cytotoxicity at 10 µM",
    "Result number": 9.67
  },
  {
    "Molecule": "Cc1n[nH]c(C)c1CCC(=O)N1CCC(O)(CN2CCOCC2)C1 (stereo unspecified)",
    "Quantity name": "cytotoxicity at 10 µM",
    "Result number": 3.38
  },
  {
    "Molecule": "Cc1nc(NCc2ccc(C)o2)cc(C(=O)N2CCOCC2)n1",
    "Quantity name": "cytotoxicity at 10 µM",
    "Result number": -2.03
  },
  {
    "Molecule": "c1cnc(N2CCO[C@H]3CN(CC4CCOC4)C[C@H]32)cn1 (stereo partly specified)",
    "Quantity name": "cytotoxicity at 10 µM",
    "Result number": -104
  },
  {
    "Molecule": "c1cnc(-c2nc(CN3CCCC(Cn4cncn4)C3)cs2)nc1 (stereo unspecified)",
    "Quantity name": "cytotoxicity at 10 µM",
    "Result number": -7.91
  },
  {
    "Molecule": "Cc1c(C)n2c(SCC(=O)N3CCCCCC3)nnc2[nH]c1=O",
    "Quantity name": "cytotoxicity at 10 µM",
    "Result number": 0.0868
  },
  {
    "Molecule": "C=c1cc(C)oc1=C1NC(c2c(C)ncc3c2CCNC3)=NO1",
    "Quantity name": "cytotoxicity at 10 µM",
    "Result number": -0.132
  },
  {
    "Molecule": "O=C1CN(C(=O)C2CCCCC2)CC(O)CN1Cc1ccco1 (stereo unspecified)",
    "Quantity name": "cytotoxicity at 10 µM",
    "Result number": -2.67
  }
]
